- Read-out: Thyroid Hormone Responsive (THRSP), THRSP (gene 7069)
- assay.overview: LTEA_HepaRG_THRSP: Life Technologies and Expression Analysis (LTEA) Assay for Thyroid Hormone Responsive (THRSP) using HepaRG (AID 2283536)
- condition.parameters: mRNA level, 48 h; actives raise or lower the signal
- Method: LTEA_HepaRG is a cell based, multiplexed-readout assay that uses HepaRG, a human liver cell line, with measurements taken at 48 hours after chemical dosing on a 96-well plate.LTEA_HepaRG_THRSP is one of 102 assay component(s) measured in the LTEA HepaRG cell culture assay. It is a marker of NR mediated metabolism.Data from the assay component LTEA_HepaRG_THRSP was analyzed into 1 endpoint. […]
Active and inactive are the calls of the source. The calls were made as follows: active = hit-call score of the fitted dose curve at least 0.9, where 1 is the maximum; inactive = score below 0.9.
Respond only with the outcome that fits, drawn from class 1 for active, class 0 for inactive

How did this test come out for `CC(C)(C)c1ccc(O)c(C(C)(C)C)c1` ?
class 0

Tell me the assay call for NC(=O)N1C(=O)C(C(=O)c2cc(Cl)cs2)c2cc(F)c(Cl)cc21 (stereo unspecified) please.
class 1

Tell me the assay call for `CCC(=C(c1ccc(O)cc1)c1ccc(OCCN(C)C)cc1)c1ccccc1` please.
class 0

GET /call?item= `c1ccc2c(c1)ccc1ccccc12` returns the recorded outcome of this test.
class 0

Test call for this molecule, please: `O=C(O)c1ccccc1C(c1ccc(O)cc1)c1ccc(O)cc1`
class 0

For `CCOC(=O)CC(O)(CC(=O)OCC)C(=O)OCC` , which call appears in the assay record?
class 0

Returns: the outcome recorded for CCCCC(CC)COC(=O)CCCCC(=O)OCc1ccccc1 (stereo unspecified) in this assay.
class 0

For `O=C(OCCOCCOC(=O)c1ccccc1)c1ccccc1` , which call appears in the assay record?
class 0

Dear all, I need the recorded test outcome for `CC(C)(C)c1cccc(C(C)(C)C)c1O` , thank you.
class 0

Give the logged outcome of this assay for the following molecule: `OC1CCCCC1`
class 0

Identify the outcome logged in this assay for the molecule shown: `NC(=O)N(O)[C@@H]1C=C[C@H](Oc2cccc(Oc3ccc(F)cc3)c2)C1`
class 0

Can you look up the reported call for `CC1=C(/C=C/C(C)=C/C=C/C(C)=C/C(=O)O)C(C)(C)CCC1` for me?
class 0

Please share the test call associated with `C=C(C)C(=O)OCCC(F)(F)C(F)(F)C(F)(F)C(F)(F)C(F)(F)C(F)(F)F` .
class 0

Check the results log: what was the call for `CCCCCCCCOC(=O)CCCCCCCCC(=O)OCCCCCCCC` ?
class 0

Check the results log: what was the call for `OCCC(F)(F)C(F)(F)C(F)(F)C(F)(F)C(F)(F)C(F)(F)F` ?
class 0

Recorded test outcome, item `CCCOc1sc(C(=O)N2CCC(c3cc(CN)ccc3F)CC2)c(C)c1Br`
class 0

----------
- Read-out: Human Leukocyte Antigen - DR isotype (HLADR), HLA-DRA (gene 3122)
- assay.overview: BSK_BE3C_HLADR: BioMAP Diversity Plus: BE3C Assay for Human Leukocyte Antigen - DR isotype (HLADR) Biomarker Activity (AID 2283032)
- condition.parameters: primary human bronchial epithelial cells; actives raise or lower the signal
Active and inactive are the calls of the source. Rule for the calls: active = hit-call score of the fitted dose curve at least 0.9, where 1 is the maximum; inactive = score below 0.9.
assay.readout: outcome

See these solved cases before continuing.
compound	outcome
CCC(C)(C)C1CCC(O)CC1 (stereo not given)	inactive
CC(C)(C)c1cc(C(C)(C)C)c(O)c(C(C)(C)C)c1	inactive
COCC(C)OCC(C)O (stereo not given)	inactive
CCOC(=O)CC(O)(CC(=O)OCC)C(=O)OCC	inactive

Next compound, outcome to be filled in.
I'd like to know its outcome. The compound in question is `NCC(F)(F)C(F)(F)C(F)(F)C(F)(F)C(F)(F)C(F)(F)C(F)(F)F`
inactive

----------
- Read-out: Hypoxia-inducible factor 1-alpha (Homo sapiens) (UniProt Q16665)
- Sequence (Q16665 whole entry, looked up): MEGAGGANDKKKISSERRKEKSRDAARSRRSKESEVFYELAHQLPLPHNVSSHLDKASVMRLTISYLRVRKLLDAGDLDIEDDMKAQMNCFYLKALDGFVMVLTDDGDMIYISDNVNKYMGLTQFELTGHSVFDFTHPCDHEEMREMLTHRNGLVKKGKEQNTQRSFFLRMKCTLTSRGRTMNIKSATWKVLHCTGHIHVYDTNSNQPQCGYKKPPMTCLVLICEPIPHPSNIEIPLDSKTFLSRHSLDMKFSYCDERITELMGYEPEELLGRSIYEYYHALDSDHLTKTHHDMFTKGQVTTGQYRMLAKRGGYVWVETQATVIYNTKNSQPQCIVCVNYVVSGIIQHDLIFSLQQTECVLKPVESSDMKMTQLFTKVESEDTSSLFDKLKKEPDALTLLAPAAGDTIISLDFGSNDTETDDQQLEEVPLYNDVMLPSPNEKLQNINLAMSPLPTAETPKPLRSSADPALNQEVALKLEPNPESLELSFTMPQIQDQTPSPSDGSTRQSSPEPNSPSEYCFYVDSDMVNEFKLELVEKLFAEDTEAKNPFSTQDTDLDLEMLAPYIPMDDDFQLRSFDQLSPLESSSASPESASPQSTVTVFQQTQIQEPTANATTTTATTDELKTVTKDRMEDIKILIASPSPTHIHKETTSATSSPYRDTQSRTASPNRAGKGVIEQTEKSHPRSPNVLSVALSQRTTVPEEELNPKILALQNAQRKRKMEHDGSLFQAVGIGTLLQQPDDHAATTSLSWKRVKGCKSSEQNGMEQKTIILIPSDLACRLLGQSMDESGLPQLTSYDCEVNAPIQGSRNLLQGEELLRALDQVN
- assay.overview: LTEA_HepaRG_HIF1A: Life Technologies and Expression Analysis (LTEA) Assay for Hypoxia-inducible factor 1 (HIF1A) Trancription factor using HepaRG (AID 2283503);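 also: HIF1A transcript by TaqMan qRT-PCR normalized to ACTB GAPDH and POLR2A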
- condition.parameters: mRNA level, 48 h; actives raise or lower the signal
Active and inactive are the calls of the source. The calls were made as follows: active = hit-call score of the fitted dose curve at least 0.9, where 1 is the maximum; inactive = score below 0.9.
assay.readout: outcome

smiles.str	reading
CC(C)(C)CC(C)(C)c1ccc(O)c(-n2nc3ccccc3n2)c1	inactive
CC(C)(C)c1ccc(O)c(C(C)(C)C)c1	inactive
C[C@@H]1C[C@H]2[C@@H]3CCC4=CC(=O)C=C[C@]4(C)[C@@]3(F)[C@@H](O)C[C@]2(C)[C@@]1(O)C(=O)COP(=O)(O)O	inactive
